# ASSAYED_TARGET: T1, human IL-11 (human, UniProt P20809 22-199)
# T1 sequence: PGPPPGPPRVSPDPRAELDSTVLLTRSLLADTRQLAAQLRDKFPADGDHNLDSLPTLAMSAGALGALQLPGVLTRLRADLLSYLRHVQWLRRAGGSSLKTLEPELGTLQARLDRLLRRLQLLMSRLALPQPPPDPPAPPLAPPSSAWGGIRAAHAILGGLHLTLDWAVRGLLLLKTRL
# EXPERIMENTAL_DETAILS: cell-based or functional assay
RGA Efficacy (%) values for the binders below.
# value in %; strip the unit string

BINDER | RGA Efficacy (%)
TPP-29399 (antibody, human IgG1, V domains shown) VH: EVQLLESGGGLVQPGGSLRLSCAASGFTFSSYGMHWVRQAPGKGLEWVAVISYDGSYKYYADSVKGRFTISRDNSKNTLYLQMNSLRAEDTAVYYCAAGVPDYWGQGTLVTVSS VL: QSVLTQPPSASGTPGQRVTISCSGSSSNIGSDYDVHWYQQLPGTAPKLLIYSNNERPSGVPDRFSGSKSGTSASLAISGLRSEDEADYYCAAWDSSLSGPVFGGGTKLTVL | 70.2

// next item, RGA Efficacy (%) requested
I have this binder here, TPP-29400 (antibody, human IgG1, V domains shown) VH: EVQLLESGGGLVQPGGSLRLSCAASGFTFSSYGGHWVRQAPGKGLEWVALISYDGSYKYYADSVKGRFTISRDNSKNTLYLQMNSLRAEDTAVYYCAAGVPDYWGQGTLVTVSS VL: QSVLTQPPSASGTPGQRVTISCSGSSSNIGSDYDVHWYQQLPGTAPKLLIYSNNERPSGVPDRFSGSKSGTSASLAISGLRSEDEADYYCAAWDFSLSGPVFGGGTKLTVL , and I need its recorded RGA Efficacy (%).
59.6

Reference source: patent US20240317847A1
